Catalogue of pKd readings, one per entry.
Biological target: T1, Murine serum albumin (MSA) (mouse, UniProt P07724 25-608)
T1 construct: Bought protein (Sigma); also called murine albumin; mouse albumin
Assay: ELISA on coated murine albumin, anti-human Fc HRP, A650, one site-total binding fit
The quantity pKd is defined as the negative base-10 logarithm of the molar concentration.

query: GET /values?readout=pKd&item= 4A01v3-7 (Fc fusion, also called Hz4A01v3-7; not shown: Human Fc carrier and its linker) VHH: EVQLVESGGGEVQPGGSLRLSCAASGFAFSTSGMVWVRQAPGKGLEWVSTISDDARIIRYAESVKGRFTISRDNAKNTVYLQMNSLRAEDTAVYYCATYRAGSRIGSYEDYYRGQGTLVTVKP
result: 9.96

query: Reported pKd for 4A01v3 (Fc fusion, also called Hz4A01v3; not shown: Human Fc carrier and its linker) VHH: EVQLVESGGGEVQPGGSLRLSCAASGFAFSTSGMVWVRQAPGKGLEWVSTISDDARIIRYAESVKGRFTISRDNAKNTLYLQMNSLRAEDTAVYYCATYRAGSRIGSYEDYYRGQGTLVTVKP : what is it?
result: 9.92

query: // query pKd value for entry 4A01v3-3 (Fc fusion, not shown: a dimerising Fc or GST; small tags and cut ends, also called Hz4A01v3-3) VHH: EVQLVESGGGEVQPGGSLRLSCAASGFAFSTSGMAWVRQAPGKGLEWVSTISDDARIIRYAESVKGRFTISRDNAKNTLYLQMNSLRAEDTAVYYCATYRAGSRIGSYEDYYRGQGTLVTVKP
result: 9.85
